# ASSAY_NOTES: activity coefficient (dimensionless); of the first substance listed, at infinite dilution; xn = mol fraction of the nth substance listed
# CONDITIONS: 338 K; 101.33 kPa; Liquid; Chromatography; x1 = 0
activity coefficient values by entry
PARAMETER_MEASURED: activity coefficient

[[record]]
compound = "C#CCCCC [1-hexyne] + CCCCCCCCCC[N+](C)(C)CCCCCCCCCC.[O-][Cl+3]([O-])([O-])[O-]"
reported = 0.989

[[record]]
compound = "CC(C)=O [acetone] + CCCCCCCCCC[N+](C)(C)CCCCCCCCCC.F[B-](F)(F)F"
reported = 0.833

[[record]]
compound = "C=CCCCCC [1-heptene] + CCCCCCCCCC[N+](C)(C)CCCCCCCCCC.F[B-](F)(F)F"
reported = 1.83

[[record]]
compound = "C=CCCCC [hex-1-ene] + CCCCCCCCCC[N+](C)(C)CCCCCCCCCC.F[B-](F)(F)F"
reported = 1.53

[[record]]
compound = "C=CCCCC [hex-1-ene] + CCCCCCCCCC[N+](C)(C)CCCCCCCCCC.[O-][Cl+3]([O-])([O-])[O-]"
reported = 1.8

[[record]]
compound = "C=CCCC [1-pentene] + CCCCCCCCCC[N+](C)(C)CCCCCCCCCC.F[B-](F)(F)F"
reported = 1.13

[[record]]
compound = "C=CCCCCCC [oct-1-ene] + CCCCCCCCCC[N+](C)(C)CCCCCCCCCC.[O-][Cl+3]([O-])([O-])[O-]"
reported = 1.04

[[record]]
compound = "C1CCCCC1 [cyclohexane] + CCCCCCCCCC[N+](C)(C)CCCCCCCCCC.F[B-](F)(F)F"
reported = 1.4


###

# ASSAY_NOTES: activity coefficient (dimensionless); of the first substance listed, at infinite dilution; xn = mol fraction of the nth substance listed
# CONDITIONS: 308 K; 101.33 kPa; Liquid; Chromatography; x1 = 0
PARAMETER_MEASURED: activity coefficient

[[record]]
molecule = "C=CCCCCCC [oct-1-ene] + CCCCCCCCCC[N+](C)(C)CCCCCCCCCC.[O-][Cl+3]([O-])([O-])[O-]"
reported = 1.1

[[record]]
molecule = "C=CCCCCC [1-heptene] + CCCCCCCCCC[N+](C)(C)CCCCCCCCCC.[O-][Cl+3]([O-])([O-])[O-]"
reported = 2.69

[[record]]
molecule = "CCO [ethanol] + CCCCCCCCCC[N+](C)(C)CCCCCCCCCC.[O-][Cl+3]([O-])([O-])[O-]"
reported = 0.623

[[record]]
molecule = "CCCCC [pentane] + CCCCCCCCCC[N+](C)(C)CCCCCCCCCC.[O-][Cl+3]([O-])([O-])[O-]"
reported = 1.77

[[record]]
molecule = "C=CCCCCCC [oct-1-ene] + CCCCCCCCCC[N+](C)(C)CCCCCCCCCC.F[B-](F)(F)F"
reported = 0.765

[[record]]
molecule = "C#CCCCCC [1-heptyne] + CCCCCCCCCC[N+](C)(C)CCCCCCCCCC.[O-][Cl+3]([O-])([O-])[O-]"
reported = 1.14

[[record]]
molecule = "C1CCCCCC1 [cycloheptane] + CCCCCCCCCC[N+](C)(C)CCCCCCCCCC.F[B-](F)(F)F"
reported = 1.65

[[record]]
molecule = "CCCCCCC [heptane] + CCCCCCCCCC[N+](C)(C)CCCCCCCCCC.F[B-](F)(F)F"
reported = 3.53

[[record]]
molecule = "CCCCC [pentane] + CCCCCCCCCC[N+](C)(C)CCCCCCCCCC.F[B-](F)(F)F"
reported = 1.85

[[record]]
molecule = "CO [methanol] + CCCCCCCCCC[N+](C)(C)CCCCCCCCCC.[O-][Cl+3]([O-])([O-])[O-]"
reported = 0.447

[[record]]
molecule = "C1CCCC1 [cyclopentane] + CCCCCCCCCC[N+](C)(C)CCCCCCCCCC.[O-][Cl+3]([O-])([O-])[O-]"
reported = 1.48

[[record]]
molecule = "CCCCCC [hexane] + CCCCCCCCCC[N+](C)(C)CCCCCCCCCC.[O-][Cl+3]([O-])([O-])[O-]"
reported = 2.49

[[record]]
molecule = "C=CCCC [1-pentene] + CCCCCCCCCC[N+](C)(C)CCCCCCCCCC.F[B-](F)(F)F"
reported = 1.27

[[record]]
molecule = "C=CCCCCC [1-heptene] + CCCCCCCCCC[N+](C)(C)CCCCCCCCCC.F[B-](F)(F)F"
reported = 1.79

[[record]]
molecule = "C1CCCCC1 [cyclohexane] + CCCCCCCCCC[N+](C)(C)CCCCCCCCCC.F[B-](F)(F)F"
reported = 1.47

[[record]]
molecule = "C=CCCC [1-pentene] + CCCCCCCCCC[N+](C)(C)CCCCCCCCCC.[O-][Cl+3]([O-])([O-])[O-]"
reported = 1.88


###

activity coefficient values by entry
# ASSAY_NOTES: activity coefficient (dimensionless); of the first substance listed, at infinite dilution; xn = mol fraction of the nth substance listed
# CONDITIONS: 338 K; 101.33 kPa; Liquid; Chromatography; x1 = 0
PARAMETER_MEASURED: activity coefficient

[[record]]
compound = "c1ccccc1 [benzene] + CCCCCCCCCC[N+](C)(C)CCCCCCCCCC.[O-][Cl+3]([O-])([O-])[O-]"
reported = 0.59

[[record]]
compound = "C/C=C/C(C)C [(E)-4-methyl-2-pentene] + CCCCCCCCCC[N+](C)(C)CCCCCCCCCC.F[B-](F)(F)F"
reported = 1.45

[[record]]
compound = "C/C=C(\\C)CC [(E)-3-methyl-2-pentene] + CCCCCCCCCC[N+](C)(C)CCCCCCCCCC.F[B-](F)(F)F"
reported = 1.3

[[record]]
compound = "CC(C)O [propan-2-ol] + CCCCCCCCCC[N+](C)(C)CCCCCCCCCC.F[B-](F)(F)F"
reported = 2.41

[[record]]
compound = "ClCCCl [1,2-dichloroethane] + CCCCCCCCCC[N+](C)(C)CCCCCCCCCC.[O-][Cl+3]([O-])([O-])[O-]"
reported = 0.494

[[record]]
compound = "CCCCCCCC [octane] + CCCCCCCCCC[N+](C)(C)CCCCCCCCCC.F[B-](F)(F)F"
reported = 3.13

[[record]]
compound = "ClC(Cl)Cl [trichloromethane] + CCCCCCCCCC[N+](C)(C)CCCCCCCCCC.F[B-](F)(F)F"
reported = 0.346

[[record]]
compound = "CCCCCCC [heptane] + CCCCCCCCCC[N+](C)(C)CCCCCCCCCC.[O-][Cl+3]([O-])([O-])[O-]"
reported = 2.85

[[record]]
compound = "C#CCCCCC [1-heptyne] + CCCCCCCCCC[N+](C)(C)CCCCCCCCCC.F[B-](F)(F)F"
reported = 0.894

[[record]]
compound = "C#CCCCCC [1-heptyne] + CCCCCCCCCC[N+](C)(C)CCCCCCCCCC.[O-][Cl+3]([O-])([O-])[O-]"
reported = 1.17

[[record]]
compound = "c1ccccc1 [benzene] + CCCCCCCCCC[N+](C)(C)CCCCCCCCCC.F[B-](F)(F)F"
reported = 0.519

[[record]]
compound = "C/C=C/C(C)C [(E)-4-methyl-2-pentene] + CCCCCCCCCC[N+](C)(C)CCCCCCCCCC.[O-][Cl+3]([O-])([O-])[O-]"
reported = 1.72

[[record]]
compound = "CCCC [butane] + CCCCCCCCCC[N+](C)(C)CCCCCCCCCC.[O-][Cl+3]([O-])([O-])[O-]"
reported = 1.28

[[record]]
compound = "CCO [ethanol] + CCCCCCCCCC[N+](C)(C)CCCCCCCCCC.[O-][Cl+3]([O-])([O-])[O-]"
reported = 0.582

[[record]]
compound = "C=CCCCCCC [oct-1-ene] + CCCCCCCCCC[N+](C)(C)CCCCCCCCCC.F[B-](F)(F)F"
reported = 0.749


###

# ASSAY_NOTES: activity coefficient (dimensionless); of the first substance listed, at infinite dilution; xn = mol fraction of the nth substance listed
# CONDITIONS: 338 K; 101.33 kPa; Liquid; Chromatography; x1 = 0
PARAMETER_MEASURED: activity coefficient

[[record]]
molecule = "CO [methanol] + CCCCCCCCCC[N+](C)(C)CCCCCCCCCC.F[B-](F)(F)F"
reported = 0.285

[[record]]
molecule = "CCC(C)=O [butanone] + CCCCCCCCCC[N+](C)(C)CCCCCCCCCC.F[B-](F)(F)F"
reported = 0.903

[[record]]
molecule = "O=C1CCCCC1 [cyclohexanone] + CCCCCCCCCC[N+](C)(C)CCCCCCCCCC.F[B-](F)(F)F"
reported = 7.99

[[record]]
molecule = "C#CCCCC [1-hexyne] + CCCCCCCCCC[N+](C)(C)CCCCCCCCCC.F[B-](F)(F)F"
reported = 0.826

[[record]]
molecule = "C1CCCCC1 [cyclohexane] + CCCCCCCCCC[N+](C)(C)CCCCCCCCCC.[O-][Cl+3]([O-])([O-])[O-]"
reported = 1.66

[[record]]
molecule = "ClC(Cl)Cl [trichloromethane] + CCCCCCCCCC[N+](C)(C)CCCCCCCCCC.[O-][Cl+3]([O-])([O-])[O-]"
reported = 0.29

[[record]]
molecule = "ClCCCl [1,2-dichloroethane] + CCCCCCCCCC[N+](C)(C)CCCCCCCCCC.F[B-](F)(F)F"
reported = 0.622

[[record]]
molecule = "CCOCC [diethyl ether] + CCCCCCCCCC[N+](C)(C)CCCCCCCCCC.F[B-](F)(F)F"
reported = 0.769

